Molecular target: UniProt:P25090
Sequence (P25090 whole entry): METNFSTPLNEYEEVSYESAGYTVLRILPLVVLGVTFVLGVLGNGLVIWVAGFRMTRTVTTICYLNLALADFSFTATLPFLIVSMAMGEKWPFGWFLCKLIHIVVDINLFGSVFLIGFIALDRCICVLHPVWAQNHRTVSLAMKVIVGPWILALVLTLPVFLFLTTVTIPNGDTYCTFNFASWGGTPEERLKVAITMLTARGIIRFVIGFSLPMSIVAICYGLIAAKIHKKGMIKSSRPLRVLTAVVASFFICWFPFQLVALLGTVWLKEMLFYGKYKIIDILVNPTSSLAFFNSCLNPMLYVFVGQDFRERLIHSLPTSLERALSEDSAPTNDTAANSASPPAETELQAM
Test: FLIPR Tetra calcium activity assay in CHO-Gα16 cells stably expressing FPR2
Details: compound-induced calcium activity, tested at 0.61 to 10,000 nM
readout.kind: pEC50
One number for each entry, as −log10 of the molar value.

IN: What measured pEC50 goes with CCOC(=O)CCNCCC1(CC)NC(=O)N(NC(=O)Nc2ccc(Br)cc2)C1=O (stereo not shown) ?
OUT: 7.31
